- System: 425362-245-T-J1 tumor spheroids, viability % test/control
- Protocol Summary: Anticancer human tumor 425362-245-T-J1 patient-derived melanoma cell line growth inhibition
- Run Conditions: second compound 0.003 µM; first compound 0.03 µM; active compounds read low; spheroids with HUVEC and MSC
- Procedure: Multicellular complex tumor spheroid response to DNA repair inhibitors in combination with DNA-damaging drugs This study explores the anticancer activities of DNA-damaging drugs and inhibitors of DNA damage repair, both as single agents and in combinations. […] Twenty-six patient-derived or established malignant cell lines were evaluated representing sarcoma, melanoma, small cell lung cancer (SCLC), non-small cell lung cancer (NSCLC), as well as bladder, ovarian and pancreatic cancers. […]
So basically: is viability, T/C under 0.3%? Then yes. Not under? Then no.

• Cn1ncnc1[C@H]1c2n[nH]c(=O)c3cc(F)cc(c23)N[C@@H]1c1ccc(F)cc1 + COc1cc2c(cc1O)CCNC21CSC2c3c(OC(C)=O)c(C)c4c(c3C(COC1=O)N1C(O)C3Cc5cc(C)c(OC)c(O)c5C(C21)N3C)OCO4 = no
• Cc1sc2c(c1C)C(c1ccc(Cl)cc1)=NC(CC(=O)Nc1ccc(O)cc1)c1nnc(C)n1-2 (stereo unspecified) + CC[C@@]1(O)C(=O)OCc2c1cc1n(c2=O)Cc2cc3c(CN(C)C)c(O)ccc3nc2-1 = no
• CNCc1ccc(-c2cc(-c3nc(-c4ccc(S(=O)(=O)C(C)C)cc4)cnc3N)on2)cc1 + COc1cc2c(cc1O)CCNC21CSC2c3c(OC(C)=O)c(C)c4c(c3C(COC1=O)N1C(O)C3Cc5cc(C)c(OC)c(O)c5C(C21)N3C)OCO4 = yes
• CNCc1ccc(-c2cc(-c3nc(-c4ccc(S(=O)(=O)C(C)C)cc4)cnc3N)on2)cc1 + CC[C@@]1(O)C(=O)OCc2c1cc1n(c2=O)Cc2cc3c(CN(C)C)c(O)ccc3nc2-1 = no
• Cc1sc2c(c1C)C(c1ccc(Cl)cc1)=NC(CC(=O)Nc1ccc(O)cc1)c1nnc(C)n1-2 (stereo unspecified) + COc1cc2c(cc1O)CCNC21CSC2c3c(OC(C)=O)c(C)c4c(c3C(COC1=O)N1C(O)C3Cc5cc(C)c(OC)c(O)c5C(C21)N3C)OCO4 = yes
• Cn1ncnc1[C@H]1c2n[nH]c(=O)c3cc(F)cc(c23)N[C@@H]1c1ccc(F)cc1 + CC[C@@]1(O)C(=O)OCc2c1cc1n(c2=O)Cc2cc3c(CN(C)C)c(O)ccc3nc2-1 = no

----------
- System: 425362-245-T-J1 tumor spheroids, viability % test/control
- Protocol Summary: Anticancer human tumor 425362-245-T-J1 cell line growth inhibition;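 further: spheroids exposed to agents for 7 days; 100% = DMSO vehicle control viability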
- Run Conditions: second compound 30 pM; first compound 3 µM; active compounds read low; spheroids with HUVEC and MSC
The following compounds are listed with their measured viability, T/C values.
Measured Quantity: viability, T/C (%)

* CNCc1ccc(-c2cc(-c3nc(-c4ccc(S(=O)(=O)C(C)C)cc4)cnc3N)on2)cc1 + COc1cc2c(cc1O)CCNC21CSC2c3c(OC(C)=O)c(C)c4c(c3C(COC1=O)N1C(O)C3Cc5cc(C)c(OC)c(O)c5C(C21)N3C)OCO4 | 0.13
* Cc1sc2c(c1C)C(c1ccc(Cl)cc1)=NC(CC(=O)Nc1ccc(O)cc1)c1nnc(C)n1-2 (centres undefined) + COc1cc2c(cc1O)CCNC21CSC2c3c(OC(C)=O)c(C)c4c(c3C(COC1=O)N1C(O)C3Cc5cc(C)c(OC)c(O)c5C(C21)N3C)OCO4 | 1.2
* Cn1ncnc1[C@H]1c2n[nH]c(=O)c3cc(F)cc(c23)N[C@@H]1c1ccc(F)cc1 + COc1cc2c(cc1O)CCNC21CSC2c3c(OC(C)=O)c(C)c4c(c3C(COC1=O)N1C(O)C3Cc5cc(C)c(OC)c(O)c5C(C21)N3C)OCO4 | 1.96
* O=C(c1cc(Cc2n[nH]c(=O)c3ccccc23)ccc1F)N1CCN(C(=O)C2CC2)CC1 + COc1cc2c(cc1O)CCNC21CSC2c3c(OC(C)=O)c(C)c4c(c3C(COC1=O)N1C(O)C3Cc5cc(C)c(OC)c(O)c5C(C21)N3C)OCO4 | 43.4

----------
- Test system: 425362-245-T-J1 tumor spheroids, viability % test/control
- Protocol Summary: Anticancer human tumor 425362-245-T-J1 cell line growth inhibition;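 further: spheroids exposed to agents for 7 days; 100% = DMSO vehicle control viability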
- Run Conditions: second compound 0.0003 µM; first compound 0.1 µM; active compounds read low; spheroids with HUVEC and MSC
Measured Quantity: viability, T/C (%)

- Cc1cc(C)c(CNC(=O)c2cc(-c3ccc(CN4CCOCC4)cc3)cc3c2cnn3C2CCCC2)c(=O)[nH]1 + COc1cc2c(cc1O)CCNC21CSC2c3c(OC(C)=O)c(C)c4c(c3C(COC1=O)N1C(O)C3Cc5cc(C)c(OC)c(O)c5C(C21)N3C)OCO4: 40
- CC1COCCN1c1cc(-c2ccnn2C)c2ccnc(-c3ccn[nH]3)c2n1 (stereo unspecified) + COc1cc2c(cc1O)CCNC21CSC2c3c(OC(C)=O)c(C)c4c(c3C(COC1=O)N1C(O)C3Cc5cc(C)c(OC)c(O)c5C(C21)N3C)OCO4: 1.46
- CC(C)n1c(=O)n(C)c2cnc3cc(F)c(-c4ccc(OCCCN5CCCCC5)nc4)cc3c21 + COc1cc2c(cc1O)CCNC21CSC2c3c(OC(C)=O)c(C)c4c(c3C(COC1=O)N1C(O)C3Cc5cc(C)c(OC)c(O)c5C(C21)N3C)OCO4: 2.75
- COc1cc(C)[nH]c(=O)c1CN1CCc2c(Cl)cc(C(OC)C3COC3)c(Cl)c2C1=O (stereo unspecified) + COc1cc2c(cc1O)CCNC21CSC2c3c(OC(C)=O)c(C)c4c(c3C(COC1=O)N1C(O)C3Cc5cc(C)c(OC)c(O)c5C(C21)N3C)OCO4: 48.1
- COc1ccc([C@@H](O)c2cc(-c3ncnc4cc(N5CCOCC5)ccc34)c(F)cc2Cl)nn1 + COc1cc2c(cc1O)CCNC21CSC2c3c(OC(C)=O)c(C)c4c(c3C(COC1=O)N1C(O)C3Cc5cc(C)c(OC)c(O)c5C(C21)N3C)OCO4: 42.5
- [2H]c1nc(C)nc([2H])c1-c1cc(NC[C@@H](C)c2cccc3c(C(=O)NC)ccnc23)ncn1 + COc1cc2c(cc1O)CCNC21CSC2c3c(OC(C)=O)c(C)c4c(c3C(COC1=O)N1C(O)C3Cc5cc(C)c(OC)c(O)c5C(C21)N3C)OCO4: 54.6

----------
- Test system: 425362-245-T-J1 tumor spheroids, viability % test/control
- Protocol Summary: Anticancer human tumor 425362-245-T-J1 cell line growth inhibition;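 further: spheroids exposed to agents for 7 days; 100% = DMSO vehicle control viability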
- Run Conditions: second compound 0.003 µM; first compound 3 µM; active compounds read low; spheroids with HUVEC and MSC
Measured Quantity: viability, T/C (%)

* O=C(c1cc(Cc2n[nH]c(=O)c3ccccc23)ccc1F)N1CCN(C(=O)C2CC2)CC1 + CC[C@@]1(O)C(=O)OCc2c1cc1n(c2=O)Cc2cc3c(CN(C)C)c(O)ccc3nc2-1 | 52.4
* CNCc1ccc(-c2cc(-c3nc(-c4ccc(S(=O)(=O)C(C)C)cc4)cnc3N)on2)cc1 + COc1cc2c(cc1O)CCNC21CSC2c3c(OC(C)=O)c(C)c4c(c3C(COC1=O)N1C(O)C3Cc5cc(C)c(OC)c(O)c5C(C21)N3C)OCO4 | 0.27
* Cc1sc2c(c1C)C(c1ccc(Cl)cc1)=NC(CC(=O)Nc1ccc(O)cc1)c1nnc(C)n1-2 (stereo not drawn) + CC[C@@]1(O)C(=O)OCc2c1cc1n(c2=O)Cc2cc3c(CN(C)C)c(O)ccc3nc2-1 | 1.89

----------
- Test system: 425362-245-T-J1 tumor spheroids, viability % test/control
- Protocol Summary: Anticancer human tumor 425362-245-T-J1 cell line growth inhibition;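 further: spheroids exposed to agents for 7 days; 100% = DMSO vehicle control viability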
- Run Conditions: second compound 0.003 µM; first compound 0.949 µM; active compounds read low; spheroids with HUVEC and MSC
So basically: is viability, T/C under 0.3%? Then 1.0. Not under? Then 0.0.

- O=C(c1cc(Cc2n[nH]c(=O)c3ccccc23)ccc1F)N1CCN(C(=O)C2CC2)CC1 + COc1cc2c(cc1O)CCNC21CSC2c3c(OC(C)=O)c(C)c4c(c3C(COC1=O)N1C(O)C3Cc5cc(C)c(OC)c(O)c5C(C21)N3C)OCO4: 1.0
- Cc1sc2c(c1C)C(c1ccc(Cl)cc1)=NC(CC(=O)Nc1ccc(O)cc1)c1nnc(C)n1-2 (stereo not drawn) + CC[C@@]1(O)C(=O)OCc2c1cc1n(c2=O)Cc2cc3c(CN(C)C)c(O)ccc3nc2-1: 0.0
- Cn1ncnc1[C@H]1c2n[nH]c(=O)c3cc(F)cc(c23)N[C@@H]1c1ccc(F)cc1 + CC[C@@]1(O)C(=O)OCc2c1cc1n(c2=O)Cc2cc3c(CN(C)C)c(O)ccc3nc2-1: 0.0
- O=C(c1cc(Cc2n[nH]c(=O)c3ccccc23)ccc1F)N1CCN(C(=O)C2CC2)CC1 + CC[C@@]1(O)C(=O)OCc2c1cc1n(c2=O)Cc2cc3c(CN(C)C)c(O)ccc3nc2-1: 0.0
- CNCc1ccc(-c2cc(-c3nc(-c4ccc(S(=O)(=O)C(C)C)cc4)cnc3N)on2)cc1 + CC[C@@]1(O)C(=O)OCc2c1cc1n(c2=O)Cc2cc3c(CN(C)C)c(O)ccc3nc2-1: 0.0
- Cc1sc2c(c1C)C(c1ccc(Cl)cc1)=NC(CC(=O)Nc1ccc(O)cc1)c1nnc(C)n1-2 (stereo not drawn) + COc1cc2c(cc1O)CCNC21CSC2c3c(OC(C)=O)c(C)c4c(c3C(COC1=O)N1C(O)C3Cc5cc(C)c(OC)c(O)c5C(C21)N3C)OCO4: 1.0
- CNCc1ccc(-c2cc(-c3nc(-c4ccc(S(=O)(=O)C(C)C)cc4)cnc3N)on2)cc1 + COc1cc2c(cc1O)CCNC21CSC2c3c(OC(C)=O)c(C)c4c(c3C(COC1=O)N1C(O)C3Cc5cc(C)c(OC)c(O)c5C(C21)N3C)OCO4: 1.0
